Quick list: Ki per entry.
target: [Pyruvate dehydrogenase (acetyl-transferring)] kinase isozyme 2, mitochondrial (Homo sapiens, UniProt Q15119)

SMILES_ENTRY	Ki, µM
COc1ccc(N(C)C(=O)c2ccc(O)cc2O)cc1	1.07
CN(C)C(=O)c1ccc(N(C)C(=O)c2ccc(O)cc2O)cc1	0.15
CCNC(=O)CN(C(=O)c1ccc(O)cc1O)c1ccc(OC)cc1	2.17
CCN(CC)CCN(C(=O)c1ccc(O)cc1O)c1ccc(OC)cc1	1.33

---

biological target: [Pyruvate dehydrogenase (acetyl-transferring)] kinase isozyme 3, mitochondrial (Homo sapiens, UniProt Q15120)
Sequence (Q15120 whole entry): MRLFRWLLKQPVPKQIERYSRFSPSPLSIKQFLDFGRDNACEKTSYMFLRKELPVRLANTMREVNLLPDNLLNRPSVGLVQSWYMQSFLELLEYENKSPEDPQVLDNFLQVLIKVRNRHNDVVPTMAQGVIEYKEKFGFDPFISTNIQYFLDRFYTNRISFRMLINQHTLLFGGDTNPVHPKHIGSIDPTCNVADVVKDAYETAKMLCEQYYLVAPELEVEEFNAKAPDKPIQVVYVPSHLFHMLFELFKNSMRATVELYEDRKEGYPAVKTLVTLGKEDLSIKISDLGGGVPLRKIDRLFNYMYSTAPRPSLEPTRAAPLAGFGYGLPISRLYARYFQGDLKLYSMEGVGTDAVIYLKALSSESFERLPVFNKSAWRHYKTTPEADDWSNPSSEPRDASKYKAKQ

SMILES_ENTRY	Ki [nM]
COc1ccc(N(C)C(=O)c2ccc(O)cc2O)cc1	550

---

biological target: [Pyruvate dehydrogenase (acetyl-transferring)] kinase isozyme 4, mitochondrial (Homo sapiens)
Sequence (Q16654 whole entry): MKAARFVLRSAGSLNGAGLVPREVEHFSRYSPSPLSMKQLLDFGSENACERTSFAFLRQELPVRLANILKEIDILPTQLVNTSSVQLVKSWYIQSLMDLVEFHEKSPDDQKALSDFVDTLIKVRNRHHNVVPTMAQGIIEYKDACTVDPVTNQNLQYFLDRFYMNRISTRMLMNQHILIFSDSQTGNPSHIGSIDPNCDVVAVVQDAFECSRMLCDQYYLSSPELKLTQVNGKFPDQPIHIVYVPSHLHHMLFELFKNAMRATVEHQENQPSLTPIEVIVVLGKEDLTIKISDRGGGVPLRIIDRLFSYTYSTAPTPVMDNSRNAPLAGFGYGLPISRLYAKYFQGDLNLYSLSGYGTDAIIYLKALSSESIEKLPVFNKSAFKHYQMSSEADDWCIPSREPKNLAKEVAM
MEASURE: Ki

SMILES_ENTRY	RESULT
COc1ccc(N(C)C(=O)c2ccc(O)cc2O)cc1	1.27 µM

Data credit: ChEMBL document CHEMBL4007418
